Target: Recombinant human ACLY full length protein (Homo sapiens (Human), UniProt P53396)
Sequence (P53396 whole entry): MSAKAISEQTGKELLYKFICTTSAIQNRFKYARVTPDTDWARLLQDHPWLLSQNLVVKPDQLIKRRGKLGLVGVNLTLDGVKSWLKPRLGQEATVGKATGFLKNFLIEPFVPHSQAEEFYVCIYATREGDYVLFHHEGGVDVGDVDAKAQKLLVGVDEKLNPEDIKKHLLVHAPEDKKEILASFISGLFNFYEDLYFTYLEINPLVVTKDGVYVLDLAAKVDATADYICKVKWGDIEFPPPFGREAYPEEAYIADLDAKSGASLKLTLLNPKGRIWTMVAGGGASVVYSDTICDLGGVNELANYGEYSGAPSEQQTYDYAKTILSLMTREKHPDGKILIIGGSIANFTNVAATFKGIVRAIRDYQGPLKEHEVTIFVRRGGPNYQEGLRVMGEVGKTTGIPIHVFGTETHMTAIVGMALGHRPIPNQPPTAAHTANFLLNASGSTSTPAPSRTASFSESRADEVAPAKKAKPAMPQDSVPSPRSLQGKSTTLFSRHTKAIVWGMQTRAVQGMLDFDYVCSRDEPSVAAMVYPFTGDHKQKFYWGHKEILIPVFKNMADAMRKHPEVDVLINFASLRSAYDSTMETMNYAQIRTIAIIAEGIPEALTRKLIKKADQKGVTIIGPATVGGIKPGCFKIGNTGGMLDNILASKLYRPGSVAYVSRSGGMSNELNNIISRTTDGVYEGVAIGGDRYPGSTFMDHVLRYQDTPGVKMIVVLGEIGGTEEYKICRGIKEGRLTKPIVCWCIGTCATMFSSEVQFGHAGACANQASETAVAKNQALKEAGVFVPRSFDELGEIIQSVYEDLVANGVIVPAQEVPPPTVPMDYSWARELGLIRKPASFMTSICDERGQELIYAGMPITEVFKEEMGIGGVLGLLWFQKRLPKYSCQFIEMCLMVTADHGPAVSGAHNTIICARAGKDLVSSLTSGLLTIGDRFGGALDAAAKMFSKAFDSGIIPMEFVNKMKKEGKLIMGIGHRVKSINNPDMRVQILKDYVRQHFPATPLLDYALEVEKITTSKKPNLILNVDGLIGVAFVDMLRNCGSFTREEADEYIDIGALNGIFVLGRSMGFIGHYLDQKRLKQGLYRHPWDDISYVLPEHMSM
Assay: hACLY ADP-Glo activity assay
Conditions: 0.5 nM ACLY; 15 μM sodium citrate, 1 μM coenzyme A, 80 μM ATP; ADP formed, luminescence; read-out: ADP-Glo IC50 GMean
pIC50: −log10 of the molar value.
In this section, each of the molecules is paired with its reported pIC50.
quantityKind: pIC50

> print(dat)
                                    molecule                                measuredon        result
 1  CN1CCCc2ccccc2-c2cc(c(F)cc2F)NS(=O)(=O)c2cc(cc(Cl)c2O)C1=O [Compound 10]  Recombinant human ACLY full length protein (Homo sapiens (Human), UniProt P53396)  8.00 to 9.00
 2  O=C1NCCCOc2cccc(c2)-c2cc(c(F)cc2F)NS(=O)(=O)c2cc1cc(Cl)c2O [Compound 5]  Recombinant human ACLY full length protein (Homo sapiens (Human), UniProt P53396)  6.00 to 8.00
 3  O=C1NCCOc2ccccc2-c2cc(c(F)cc2F)NS(=O)(=O)c2cc1cc(Cl)c2O [Compound 2]  Recombinant human ACLY full length protein (Homo sapiens (Human), UniProt P53396)  8.00 to 9.00
 4  C[C@@H]1COc2ccccc2-c2cc(c(F)cc2F)NS(=O)(=O)c2cc(cc(Cl)c2O)C(=O)N1 [Compound 19]  Recombinant human ACLY full length protein (Homo sapiens (Human), UniProt P53396)  6.00 to 8.00
 5  CN1CCOc2ccccc2-c2cc(c(F)cc2F)NS(=O)(=O)c2cc(cc(Cl)c2O)C1=O [Compound 4]  Recombinant human ACLY full length protein (Homo sapiens (Human), UniProt P53396)  8.00 to 9.00
 6  O=C1OCCCOc2ccccc2-c2cc(c(F)cc2F)NS(=O)(=O)c2cc1cc(Cl)c2O [Compound 20]  Recombinant human ACLY full length protein (Homo sapiens (Human), UniProt P53396)        > 9.00
 7  O=C1NCCOc2cccc(c2)-c2cc(c(F)cc2F)NS(=O)(=O)c2cc1cc(Cl)c2O [Compound 3]  Recombinant human ACLY full length protein (Homo sapiens (Human), UniProt P53396)  6.00 to 8.00
 8  O=C1OCCCc2ccccc2-c2cc(c(F)cc2F)NS(=O)(=O)c2cc1cc(Cl)c2O [Compound 16]  Recombinant human ACLY full length protein (Homo sapiens (Human), UniProt P53396)        > 9.00
 9  CN1c2cc(c(F)cc2F)-c2ccccc2OCCNC(=O)c2cc(Cl)c(O)c(c2)S1(=O)=O [Compound 9]  Recombinant human ACLY full length protein (Homo sapiens (Human), UniProt P53396)        ≤ 6.00
10  O=C1NCCCc2ccccc2-c2cc(c(F)cc2F)NS(=O)(=O)c2cc1cc(Cl)c2O [Compound 8]  Recombinant human ACLY full length protein (Homo sapiens (Human), UniProt P53396)  8.00 to 9.00
11  C[C@H]1COc2ccccc2-c2cc(c(F)cc2F)NS(=O)(=O)c2cc(cc(Cl)c2O)C(=O)N1 [Compound 17]  Recombinant human ACLY full length protein (Homo sapiens (Human), UniProt P53396)  6.00 to 8.00
12  O=C1NCCOc2ccccc2-c2cc(c(F)cc2F)NS(=O)(=O)c2cc1cc(Cl)c2OC(F)F [Compound 15]  Recombinant human ACLY full length protein (Homo sapiens (Human), UniProt P53396)        ≤ 6.00
13  COc1c(Cl)cc2cc1S(=O)(=O)Nc1cc(c(F)cc1F)-c1ccccc1OCCNC2=O [Compound 1]  Recombinant human ACLY full length protein (Homo sapiens (Human), UniProt P53396)        ≤ 6.00
14  O=C1NCCCOc2ccccc2-c2cc(c(F)cc2F)NS(=O)(=O)c2cc1cc(Cl)c2O [Compound 6]  Recombinant human ACLY full length protein (Homo sapiens (Human), UniProt P53396)  6.00 to 8.00
15  O=C1OCCOc2cc(Cl)ccc2-c2cc(c(F)cc2F)NS(=O)(=O)c2cc1cc(Cl)c2O [Compound 18]  Recombinant human ACLY full length protein (Homo sapiens (Human), UniProt P53396)  8.00 to 9.00

* * *

pIC50 listing for selected compounds.
Target: ACLY (Homo sapiens (Human), UniProt P53396)
Sequence (P53396 whole entry): as above
Experiment: InCell Pulse assay (permeate HEK293 cells, bind to and stabilize ACLY)
Type: cell-based
Conditions: HEK293 cells transfected with pICP-ACLY(FL)-ePL; 1 hour at 37° C., 55° C. heat pulse 10 minutes; read-out: InCell Pulse IC50 GMean
pIC50: −log10 of the molar value.
quantityKind: pIC50

> print(dat)
                                   compound        result
1  O=S1(=O)Nc2cc(ccc2F)-c2ccccc2CCOCc2cc(Cl)c(O)c1c2 [Compound 69]        > 6.52
2  O=C1OCc2ccc(F)cc2-c2cc(c(F)cc2F)NS(=O)(=O)c2cc1cc(Cl)c2O [Compound 81]        > 6.52
3  COc1cc(F)c2cc1-c1ccccc1OCCOC(=O)c1cc(Cl)c(O)c(c1)S(=O)(=O)N2 [Compound 47]        > 6.52
4  O=C1OCC2Cc3cccc(c3O2)-c2cc(c(F)cc2F)NS(=O)(=O)c2cc1cc(Cl)c2O (centres unmarked) [Compound 39]        > 6.52
5  O=C1OCCCOc2cc(F)ccc2-c2cc(c(F)cc2F)NS(=O)(=O)c2cc1cc(Cl)c2O [Compound 29]  6.00 to 6.52
6  O=C1NCCOc2ccccc2-c2cc(c(F)cc2F)NC(=O)c2cc1ccc2O [Compound 12]        ≤ 4.30
7  Cc1cccc2c1-c1cc(c(F)cc1F)NS(=O)(=O)c1cc(cc(Cl)c1O)C(=O)OCCO2 [Compound 49]        ≤ 4.30
8  O=C1NCCCOc2ccccc2-c2cc(c(F)cc2F)NS(=O)(=O)c2cc1cc(Cl)c2O [Compound 6]        ≤ 4.30

* * *

Molecular target: ACLY (Homo sapiens (Human))
Test: Human ACLY (hACLY) RF/MS activity assay
Type: biochemical
Details: 1 nM hACLY; 30 min pre-incubation; 15 μM Coenzyme A, 50 μM ATP, 50 μM citrate; CoA to Acetyl-CoA by RF/MS; read-out: RFMS IC50 GMean
pIC50: −log10 of the molar value.
Quick reference: pIC50 of the listed items.
quantityKind: pIC50

> print(dat)
                                   molecule        result
1  O=C1OCCOc2ccccc2-c2cc(c(F)cc2F)NS(=O)(=O)c2cc1cc(Cl)n2 [Compound 61]        ≤ 5.00
2  O=C1OCCOc2ccc(F)cc2-c2ccc(F)c(c2)NS(=O)(=O)c2cc1c[nH]c2=O [Compound 37]  5.00 to 7.00
3  CN1CCOc2ccccc2-c2cc(c(F)cc2F)NS(=O)(=O)c2cc(cc(Cl)c2O)C1=O [Compound 4]  7.00 to 7.70
4  O=C1OCCOc2ccc(F)cc2-c2ccc(F)c(c2)NS(=O)(=O)c2cc1cc(Cl)c2O [Compound 46]        > 7.70
5  O=C1NCCCOc2cccc(c2)-c2cc(c(F)cc2F)NS(=O)(=O)c2cc1cc(Cl)c2O [Compound 5]  5.00 to 7.00
6  CC1CCOC(=O)c2cc(Cl)c(O)c(c2)S(=O)(=O)Nc2cc(c(F)cc2F)-c2ccccc21 (single isomer, unassigned) [Compound 44]  5.00 to 7.00
7  O=C1NCCOc2ccccc2-c2cc3c(cc2F)CCN3C(=O)c2cc1ccc2O [Compound 11]        ≤ 5.00

* * *

Biological target: ACLY (Homo sapiens (Human), UniProt P53396)
Assay: InCell Pulse assay (permeate HEK293 cells, bind to and stabilize ACLY)
Type: cell-based
Conditions: HEK293 cells transfected with pICP-ACLY(FL)-ePL; 1 hour at 37° C., 55° C. heat pulse 10 minutes; read-out: InCell Pulse IC50 GMean
quantityKind: IC50

> print(dat)
                                     smiles      result
1  O=C1OCc2cccnc2-c2cc(c(F)cc2F)NS(=O)(=O)c2cc1cc(Cl)c2O     ≥ 50 µM
2  O=S1(=O)Nc2cc(ccc2F)-c2ccccc2CCCOCc2cc(Cl)c(O)c1c2  1 to 50 µM
3  O=S1(=O)Nc2cc(c(F)cc2F)-c2ccccc2OCCn2cnnc2-c2cc(Cl)c(O)c1c2  1 to 50 µM
4  O=C1OCCOc2ccc(F)cc2-c2ccc(F)c(c2)NS(=O)(=O)c2cc1c[nH]c2=O     ≥ 50 µM
5  O=C1NCCOc2ccccc2-c2cc(c(F)cc2F)NCc2cc1ccc2O     ≥ 50 µM
6  O=C1OCCCn2c(cc3ccccc32)-c2cc(c(F)cc2F)NS(=O)(=O)c2cc1cc(Cl)c2O     ≥ 50 µM
7  O=C1OCCc2ccccc2-c2cc(F)c(F)c(c2)NS(=O)(=O)c2cc1cc(Cl)c2O    < 0.3 µM
8  CN1CCc2ccccc2-c2cc(c(F)cc2F)NS(=O)(=O)c2cc(cc(Cl)c2O)C1=O     ≥ 50 µM
